Assay: LNP Characteristics (size, PDI, encapsulation efficiency) of LNPs formulated with novel ionizable lipids
Type: physicochemical
Details: LNP formulated with the ionizable lipid, DOPE, Cholesterol, DMG-PEG2000
observation-type: Avg. Size (nm)

[[record]]
molecule = "CCCCCCCCCCCCCCCCCC(=O)N(C(CCCCCCC)CCCCCCC)C(CC1CCN(C)CC1)C(=O)NC1CCCCC1 (stereo not drawn)"
test_result = 166.8

[[record]]
molecule = "CCCCCCCCCN(CCCCCCCCC)CCC(=O)N1CN(C(=O)CCN(CCCCCCCCC)CCCCCCCCC)CN(C(=O)CCN(CCCCCCCCC)CCCCCCCCC)C1 [Lipid E2]"
test_result = 200

[[record]]
molecule = "CCCCCCCCCCCC(CCCCCCCCCCC)N(C(=O)CCCCCCCCC)C(C(=O)NC(C)(C)C)C1CCN(CC)CC1 (stereo not drawn)"
test_result = 173.8

